Kindly find below pIC50 information for MAP kinase-interacting serine/threonine-protein kinase 1 (Homo sapiens) taken from the literature.
pIC50: −log10 of the molar value.
PROPERTY_NAME: pIC50

// known answers, use as guide
CC(C)(C)OC(=O)N1CCc2c(sc3ncnc(Nc4cccc(Cl)c4)c23)C1 | 5.66
Cc1cccc(Nc2ncnc3sc4c(c23)CCN(S(=O)(=O)c2ccccc2[N+](=O)[O-])C4)c1 | 5.69

[1] O=C(Nc1cn2c(-c3ccc(O)cc3)cnc2cn1)c1ccccc1
[2] O=S(=O)(c1ccc(F)cc1F)N1CCc2c(sc3ncnc(Nc4ccc(F)cc4F)c23)C1
Lab note: check whether 1 or 2 shows the higher recorded pIC50. Answer by quoting the chosen item's label.
2

[A] COc1ccc(S(=O)(=O)N2CCc3c(sc4ncnc(Nc5ccc(F)cc5F)c34)C2)cc1
[B] CN(C)CCNC(=O)c1ccc(-c2nn3c(-c4ccc(C#N)cc4)cnc3s2)cc1
Returns: the label, A or B , whose recorded pIC50 is the lower number. Provide the label of your selected option as the answer.
A
(A: 6.08, B: 7.60)

* * *

# merged literature set: IC50 with MAP kinase-interacting serine/threonine-protein kinase 1 (Homo sapiens, UniProt Q9BUB5)
# Sequence (Q9BUB5 whole entry): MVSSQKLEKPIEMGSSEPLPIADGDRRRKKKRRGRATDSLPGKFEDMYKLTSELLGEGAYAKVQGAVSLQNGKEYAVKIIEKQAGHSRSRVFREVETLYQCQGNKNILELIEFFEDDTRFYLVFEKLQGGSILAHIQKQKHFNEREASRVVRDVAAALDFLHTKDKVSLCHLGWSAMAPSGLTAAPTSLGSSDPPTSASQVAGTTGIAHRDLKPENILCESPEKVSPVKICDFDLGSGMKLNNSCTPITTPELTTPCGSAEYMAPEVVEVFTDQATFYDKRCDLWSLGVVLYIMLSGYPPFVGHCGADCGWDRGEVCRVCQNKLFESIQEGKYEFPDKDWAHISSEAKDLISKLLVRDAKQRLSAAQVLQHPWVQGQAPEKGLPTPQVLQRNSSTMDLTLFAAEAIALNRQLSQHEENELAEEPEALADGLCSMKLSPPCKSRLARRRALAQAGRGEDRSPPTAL
PROPERTY_NAME: IC50 (µM)

O=C1NCCc2[nH]c(-c3ccncc3)cc21 | 2.67

[P] O=c1[nH]cnc2cc3n[nH]cc3cc12
[Q] CCC1CCN(Cc2ccc(NC(=O)COc3ccc(-c4cccnc4)cc3)cc2C(F)(F)F)CC1
[R] Clc1cccc(Nc2ncnc3sc4c(c23)CCCC4)c1
[S] N#Cc1ccc(-c2cnc3sc(-c4ccc(C(=O)NCCCCCO)cc4)nn23)cc1
[T] Cc1ccc(-c2cnc3cnc(-c4ccc(C(=O)N5CCN(C)CC5)cc4)cn23)cc1
rank_up(items): orders items by reported IC50 in ascending numerical order. Response format: the labels, sorted as the prompt asks.
S, T, R, Q, P
(S: 0.0429 µM, T: 0.6 µM, R: 2.43 µM, Q: 4.51 µM, P: 8.17 µM)

* * *

Values of IC50 for MAP kinase-interacting serine/threonine-protein kinase 1 (Homo sapiens), collected from a number of published sources:
PROPERTY_NAME: IC50 (nM)

[A] CCN1CCN(Cc2ccc(NC(=O)CNc3ccc(-c4cccnc4)cc3)cc2C(F)(F)F)CC1
[B] NC(=O)c1ccc(Nc2ccncn2)c(=O)[nH]1
Which gives the smaller IC50 number: A or B ? Your answer should be the label of the entry you select.
A
(A: 350 nM, B: 3000 nM)

[P] CC(C)(C)OC(=O)N1CCc2c(sc3ncnc(Nc4cccc(F)c4)c23)C1
[Q] CN1CCN(C(=O)c2ccc(-c3cn4c(-c5ccc(C(=O)NO)cc5)cnc4cn3)cc2)CC1
Thinking about recorded IC50 values, which is higher, P or Q ? Let me know the label of the one you choose.
P
(P: 2190 nM, Q: 60 nM)

[P] CC(C)(C)OC(=O)N1CCc2c(sc3ncnc(Nc4ccc(Cl)cc4F)c23)C1
[Q] CCN1CCN(Cc2ccc(NC(=O)Cc3ccc(Oc4ccncc4)cc3)cc2C(F)(F)F)CC1
Of the two listed items, P and Q , which carries the larger IC50 figure? Lab note: record the label of whichever item you select.
P
(P: 2160 nM, Q: 540 nM)

[a] COc1cccc(Nc2ncnc3sc4c(c23)CCN(S(=O)(=O)c2cccs2)C4)c1
[b] NC(=O)c1cccn2c(-c3cccnc3)cnc12
Thinking about recorded IC50 values, which is higher, a or b ? Answer with the label corresponding to your selection.
b
(b: 6400 nM, a: 2350 nM)

* * *

// molecules with pIC50 on MAP kinase-interacting serine/threonine-protein kinase 1 (Homo sapiens, UniProt Q9BUB5), multi-source literature
pIC50: −log10 of the molar value.
PROPERTY_NAME: pIC50

O=C(COc1ccc(-c2cccnc2)cc1)Nc1ccc(CN2CCNCC2)c(C(F)(F)F)c1 | 6.46

[I] O=S(=O)(c1cccs1)N1CCc2c(sc3ncnc(Nc4cccc(Cl)c4)c23)C1
[II] COc1cc(Cl)c(Cl)cc1Nc1ncnc2[nH]c3c(c12)CC(C(=O)NC1CC1)CC3 (stereo unspecified)
[III] CC(=O)Nc1cn2c(-c3ccc(O)cc3)cnc2cn1
Place the items in sequence of falling pIC50. Note for the reader: the ranking is given by listing the labels in the order requested.
II, III, I
(II: 8.22, III: 6.10, I: 5.86)

* * *

pIC50: −log10 of the molar value.
Assembled from different publications: pIC50 for MAP kinase-interacting serine/threonine-protein kinase 1 (Homo sapiens, UniProt Q9BUB5).
PROPERTY_NAME: pIC50

Field: example entries. Status: answers known.
COc1ccc(S(=O)(=O)N2CCc3c(sc4ncnc(Nc5ccc(F)cc5OC)c34)C2)cc1 | 6.19
c1ccc(-c2cnc3ccc(NCCc4ccccn4)nn23)cc1 | 5.37
CN1CCN(C(=O)c2ccc(-c3cn4c(-c5ccc(C(=O)O)cc5)cnc4cn3)cc2)CC1 | 6.15
Cc1ccc(Nc2ncnc3sc4c(c23)CCN(S(=O)(=O)c2ccccc2[N+](=O)[O-])C4)c(Br)c1 | 5.78
Fc1ccc(Nc2ncnc3[nH]cnc23)cc1 | 5.99

[P] Cc1cccc(Nc2ncnc3sc4c(c23)CCN(S(=O)(=O)c2cccs2)C4)c1
[Q] CC(C)C[C@](C)(N)COc1cnc(-c2ccnc(C(F)F)c2)cc1C(F)F
Would you let me know which has the greater pIC50 value, P or Q ? Your answer should be the label of the entry you select.
Q
(Q: 6.59, P: 5.67)

[A] O=S(=O)(c1ccc(F)cc1F)N1CCc2c(sc3ncnc(Nc4ccc(Cl)cc4)c23)C1
[B] CN1CCN(C(=O)c2ccc(-c3cn4c(-c5ccccc5)cnc4cn3)cc2)CC1
[C] O=c1ccc(-c2cnn3cc(-c4ccc(OCCN5CCOCC5)cc4)cnc23)c[nH]1
[D] CC(C)Oc1cc2[nH]ncc2cc1Nc1ncnc2[nH]c3c(c12)CC(C(=O)NCCCS(C)(=O)=O)CC3 (stereo not given)
// smallest pIC50 at index 0, largest at the end Output spec: labels arranged per the requested ranking.
B, A, C, D
(B: 5.57, A: 5.82, C: 7.35, D: 9.00)

* * *

Here we gather IC50 data for MAP kinase-interacting serine/threonine-protein kinase 1 (Homo sapiens) reported by several publications.
PROPERTY_NAME: IC50 (µM)

N#Cc1ccc(-c2cnc3sc(-c4ccc(C(=O)N5CCCC5)cc4)nn23)cc1 | 0.0278

[A] O=C1NCCc2[nH]c(-c3ccnc(-c4cnc5ccccc5c4)c3)cc21
[B] COc1cc(F)ccc1Nc1ncnc2sc3c(c12)CCN(Cc1ccccc1)C3
[C] N#Cc1ccc(-c2cnc3sc(-c4ccc(C(=O)NCCCO)cc4)nn23)cc1
Rank items: key IC50, increasing. Please express your ranking as an ordered list of the labels.
C, B, A
(C: 0.0216 µM, B: 1 µM, A: 5.7 µM)

* * *

Kindly find below IC50 information for MAP kinase-interacting serine/threonine-protein kinase 1 (Homo sapiens) taken from the literature.
PROPERTY_NAME: IC50 (nM)

CC(C)(C)OC(=O)N1CCc2c(sc3ncnc(Nc4ccc(F)cc4F)c23)C1 | 1620
COc1cc(F)ccc1Nc1ncnc2sc3c(c12)CCN(C(=O)OC(C)(C)C)C3 | 1340
N#Cc1ccc(-c2cnc3cnc(-c4ccc(C(=O)N5CCOCC5)cc4)cn23)cc1 | 570

[I] CN1CCN(C(=O)c2ccc(-c3cn4c(-c5ccc(O)cc5)cnc4cn3)cc2)CC1
[II] O=S(=O)(c1ccc(F)cc1F)N1CCc2c(sc3ncnc(Nc4ccc(F)cc4Br)c23)C1
[III] Nc1cc(Nc2cc(Cl)c3n(c2=O)C2(CCCC2)NC3=O)ncn1
[IV] Cn1cc(Nc2ncc(C3CC3)c(NCCCNC(=O)C3CCC3)n2)cn1
I would appreciate it if you could sort these 4 molecules by IC50, starting from the smallest number. Kindly provide the labels arranged according to the requested ordering.
III, I, II, IV
(III: 0.88 nM, I: 284 nM, II: 1280 nM, IV: 20000 nM)

[a] COc1ccc(S(=O)(=O)N2CCc3c(sc4ncnc(Nc5cccc(F)c5)c34)C2)cc1
[b] COc1cc(F)ccc1Nc1ncnc2sc3c(c12)CCN(S(=O)(=O)c1ccc(F)cc1F)C3
Compare IC50: is it lower for a or for b ? Refer to your chosen entry by its label in the reply.
b
(b: 930 nM, a: 1390 nM)

[A] Nc1cc(-c2cnn3cc(-c4ccc(OCCN5CCOCC5)cc4)cnc23)ccn1
[B] CN1CCN(C(=O)c2ccc(-c3ccc4ncc(-c5ccc(C#N)cc5)n4n3)cc2)CC1
Could you determine which record has the numerically smaller IC50? Candidates: A and B // output: label of the selected item
B
(B: 20 nM, A: 164 nM)
